# measurement-target: MDM4 (Homo sapiens)
# Construct: GST; made in house
# Sequence (O15151 whole entry): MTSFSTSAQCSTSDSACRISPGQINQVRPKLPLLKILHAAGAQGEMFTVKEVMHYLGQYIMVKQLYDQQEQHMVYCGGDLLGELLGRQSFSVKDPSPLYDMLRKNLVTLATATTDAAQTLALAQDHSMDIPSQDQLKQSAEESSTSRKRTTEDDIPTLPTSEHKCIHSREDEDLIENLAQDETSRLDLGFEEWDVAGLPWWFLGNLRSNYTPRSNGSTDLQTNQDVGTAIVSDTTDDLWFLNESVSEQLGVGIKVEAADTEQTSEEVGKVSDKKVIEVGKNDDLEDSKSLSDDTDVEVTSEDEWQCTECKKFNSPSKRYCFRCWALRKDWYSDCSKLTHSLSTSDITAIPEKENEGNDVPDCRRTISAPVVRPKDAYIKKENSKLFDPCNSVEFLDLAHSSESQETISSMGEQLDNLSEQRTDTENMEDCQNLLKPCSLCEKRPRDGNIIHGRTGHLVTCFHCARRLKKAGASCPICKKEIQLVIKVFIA
# assay-comment: Fluorescence polarization (FP) binding to MDM4/MDMX
Starred links: 1 amine or outer side, 2 acyl side, 3 side chain; linkers in the order of their positions; H or OH if unused. Positions of bridges follow the written chain, without caps; N, C: chain ends. Non-standard residues stand in square brackets, D forms with d. Residues, ends and D or L forms follow the SMILES beside them. ξ: configuration not given here. dPhe(4-CF3) = N[C@H](Cc1ccc(C(F)(F)F)cc1)C(=O)O; dTrp(6-F) = N[C@H](Cc1c[nH]c2cc(F)ccc12)C(=O)O; ξPhe(4-CF3) = NC(Cc1ccc(C(F)(F)F)cc1)C(=O)O; X1 = C[C@](CCCCC=[*:3])(N[*:1])C(=O)[*:2]; S8 = C=CCCCCCC[C@](C)(N)C(=O)O; R5 = C=CCCC[C@@](C)(N)C(=O)O

compound	measurement-target	binding to MDMX in FP assay
CC(C)C[C@@H](NC(=O)[C@@H](CC(C)C)NC(=O)[C@@]1(C)CCC/C=C\CCCCCC[C@](C)(NC(=O)[C@H](N)[C@H](C)O)C(=O)N[C@H](Cc2c[nH]c3cc(F)ccc23)C(=O)N[C@H](Cc2ccc(O)cc2)C(=O)N[C@H](C)C(=O)N[C@H](CC(N)=O)C(=O)NC(Cc2ccc(C(F)(F)F)cc2)C(=O)N[C@H](CCC(=O)O)C(=O)N1)C(=O)N[C@H](CCCNC(=N)N)C(N)=O (stereo partly drawn) [^DPMI-(2-9)] (H-[dT][S8][dTrp(6-F)][dY][dA][dN][ξPhe(4-CF3)][dE][R5][dL][dL][dR]-NH2; staple (Z) 2-9)	MDM4 (Homo sapiens)	no binding
CC(C)C[C@@H](NC(=O)[C@@H](CC(C)C)NC(=O)[C@@]1(C)CCCC/C=C\CCC[C@@](C)(NC(=O)[C@@H](Cc2ccc(O)cc2)NC(=O)[C@@H](Cc2c[nH]c3cc(F)ccc23)NC(=O)[C@@H](C)NC(=O)[C@H](N)[C@H](C)O)C(=O)N[C@H](CC(N)=O)C(=O)N[C@H](Cc2ccc(C(F)(F)F)cc2)C(=O)N[C@H](CCC(=O)O)C(=O)N1)C(=O)N[C@H](CCCNC(=N)N)C(N)=O [^DPMI-δ (5-9)] (H-[dT][dA][dTrp(6-F)][dY][R5][dN][dPhe(4-CF3)][dE][X1][dL][dL][dR]-NH2; staple (Z) 5-9)	MDM4 (Homo sapiens)	no binding
CC(C)C[C@@H](NC(=O)[C@@H](CC(C)C)NC(=O)[C@@H](CCCCN)NC(=O)[C@@H](CCC(=O)O)NC(=O)[C@@H](Cc1ccc(C(F)(F)F)cc1)NC(=O)[C@@]1(C)CCC/C=C\CCC[C@@](C)(NC(=O)[C@H](N)[C@H](C)O)C(=O)N[C@H](Cc2c[nH]c3cc(F)ccc23)C(=O)N[C@H](Cc2ccc(O)cc2)C(=O)N[C@H](C)C(=O)N1)C(=O)N[C@H](CCCNC(=N)N)C(N)=O [^DPMI-δ (2-6)] (H-[dT][R5][dTrp(6-F)][dY][dA][R5][dPhe(4-CF3)][dE][dK][dL][dL][dR]-NH2; staple (Z) 2-6)	MDM4 (Homo sapiens)	no binding

Just for reference, patent US20220267376A1 is where these values come from.
